# protocolText: folding enthalpy; higher = less favourable; fluorescence melt of hairpins on a sequencing array, two-state fit
# conditionDetails: sodium 0.088 M
Entries and their folding enthalpy values follow.
Please give a number only; it is taken to be in kcal/mol.

Guide cases for folding enthalpy, answers given:
                         sequencecontent  readoutvalue
0  GGGACAGGAAACTGCCCC (((.(((....))).)))         -35.2
1              GCGTAGAGACGC ((((....))))         -13.3

Q: Identify measured folding enthalpy associated with GTTTTTGGAAACAAGAAC (((.(((....))).)))
A: -19.6

Q: Identify measured folding enthalpy associated with GGCTTACCGAAAGGTGCC (((..(((....))))))
A: -23.1
